Quick reference for pKi among some molecules
Biological target: Nociceptin receptor (Homo sapiens)
Sequence (P41146 whole entry): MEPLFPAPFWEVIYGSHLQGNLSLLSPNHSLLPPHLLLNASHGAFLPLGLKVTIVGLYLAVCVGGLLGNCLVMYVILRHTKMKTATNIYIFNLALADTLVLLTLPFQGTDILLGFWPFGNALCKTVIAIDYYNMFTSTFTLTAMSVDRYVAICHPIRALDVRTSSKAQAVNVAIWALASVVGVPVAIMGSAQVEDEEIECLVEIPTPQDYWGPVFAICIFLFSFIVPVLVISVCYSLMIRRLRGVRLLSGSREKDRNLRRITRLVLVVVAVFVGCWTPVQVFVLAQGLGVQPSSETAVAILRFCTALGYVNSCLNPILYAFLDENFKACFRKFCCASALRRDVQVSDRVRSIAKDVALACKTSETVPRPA
Test: Ability to displace [3H]nociceptin ( 0.5 nM ) binding from Opioid receptor like 1 expressed in HeLa cells.
Assay type: cell-based
pKi: −log10 of the molar value.

- Input smiles: "Cc1cc(N)c2cc(NC(=O)c3ccccc3CCCc3ccccc3)ccc2n1"
  System name: "Nociceptin receptor (Homo sapiens)"
  pKi: 6.92
- Input smiles: "Cc1cc(N)c2cc(NC(=O)c3ccccc3COc3ccc(N)cc3)ccc2n1"
  System name: "Nociceptin receptor (Homo sapiens)"
  pKi: 7.08
- Input smiles: "Cc1ccc(OCc2ccccc2C(=O)Nc2ccc3nc(C)cc(N)c3c2)cc1"
  System name: "Nociceptin receptor (Homo sapiens)"
  pKi: 8.15
- Input smiles: "CCc1cc(N)c2cc(NC(=O)c3ccccc3COc3ccc(Cl)cc3)ccc2n1"
  System name: "Nociceptin receptor (Homo sapiens)"
  pKi: 8.74
- Input smiles: "Nc1ccnc2ccc(NC(=O)c3ccccc3COc3ccc(Cl)cc3)cc12"
  System name: "Nociceptin receptor (Homo sapiens)"
  pKi: 7.07
